Assay Protocol: AUC (0 to infinity) in Balb/c mouse at 2 mg/kg, iv by LC-MS/MS analysis
Format: ADME, organism-based
Parameters: dose 2 mg/kg, route intravenous, time infinity
Experimental Setup: in vivo
Experimental Readout: AUC(0-inf)

{"Compound": "CC(C)(C)N1CCN(C(=O)c2ccnc(Nc3cc4[nH]c(-c5cccc(C(F)(F)F)c5)nc4cn3)c2)CC1", "Measured Result": "0.933 µM·h"}

###

Assay Protocol: AUC (0 to infinity) in Balb/c mouse at 20 mg/kg, po by LC-MS/MS analysis
Assay type: ADME, organism-based
Set-up: dose 20 mg/kg, route oral, time infinity
Experimental Setup: in vivo
Experimental Readout: AUC(0-inf) (µM·h)

{"Compound": "CC(C)(C)N1CCN(C(=O)c2ccnc(Nc3cc4[nH]c(-c5cccc(C(F)(F)F)c5)nc4cn3)c2)CC1", "Experimental Readout": "AUC(0-inf)", "Measured Result": 0.2}
